Test system: A. baumannii
Test: combination effect of silver nanoparticles with antibiotic discs
Format: cell-based, Acinetobacter baumannii
Details: antibiotic disc alone; F 100 μg, FOS 50 μg, TE 30 μg, FEP 30 μg, MXF 5 μg, LEV 5 μg; Mueller-Hinton agar, 24 hours at 37° C.
Below is a list of entries, each paired with its recorded C: inhibition zone of the antibiotic alone as a control value.
// units = mm; emit number, no label

Per the records, this molecule ( CN(C)[C@@H]1C(O)=C(C(N)=O)C(=O)[C@@]2(O)C(O)=C3C(=O)c4c(O)cccc4[C@@](C)(O)[C@H]3C[C@@H]12 [Tetracycline] ) has C: inhibition zone of the antibiotic alone as a control equal to 11.5

Per the records, this molecule ( O=C1CN(/N=C/c2ccc([N+](=O)[O-])o2)C(=O)N1 [Nitrofurantoin] ) has C: inhibition zone of the antibiotic alone as a control equal to 11

Per the records, this molecule ( C[C@@H]1O[C@@H]1P(=O)(O)O [Fosfomycin] ) has C: inhibition zone of the antibiotic alone as a control equal to 10

Per the records, this molecule ( COc1c(N2C[C@@H]3CCCN[C@@H]3C2)c(F)cc2c(=O)c(C(=O)O)cn(C3CC3)c12 [Moxifloxacin] ) has C: inhibition zone of the antibiotic alone as a control equal to 20

Per the records, this molecule ( C[C@H]1COc2c(N3CCN(C)CC3)c(F)cc3c(=O)c(C(=O)O)cn1c23 [Levofloxacin] ) has C: inhibition zone of the antibiotic alone as a control equal to 23
